assay: activity coefficient (dimensionless); of the first substance listed, at infinite dilution; xn = mol fraction of the nth substance listed; details: 353.15 K; 101 kPa; Liquid; Chromatography; x1 = 0
readout.type: activity coefficient
// no unit string in output, number only

Query: Return reported activity coefficient. Input compound: CCCCO [butan-1-ol] + CCCCn1cc[n+](C)c1.F[P-](F)(F)(F)(F)F
Result: 3.43

Query: Could you please provide reported activity coefficient for CC(C)(C)O [2-methylpropan-2-ol] + CCCCn1cc[n+](C)c1.F[P-](F)(F)(F)(F)F ? Thanks!
Result: 2.45

Query: Please give the documented activity coefficient of CCC(C)O (stereo not drawn) [butan-2-ol] + CCCCn1cc[n+](C)c1.COS(=O)(=O)[O-]
Result: 1.21

Query: Return value of activity coefficient for input CCO [ethanol] + CCCCn1cc[n+](C)c1.COS(=O)(=O)[O-] , no commentary.
Result: 0.59

Query: Name the recorded activity coefficient of the compound listed here: CO [methanol] + CCCCn1cc[n+](C)c1.F[P-](F)(F)(F)(F)F
Result: 1.36

Query: Item CC(C)CO [2-methyl-1-propanol] + CCCCCC[n+]1ccn(C)c1.O=S(=O)([N-]S(=O)(=O)C(F)(F)F)C(F)(F)F : provide activity coefficient
Result: 1.3

Query: Supply reported activity coefficient belonging to this compound: CC(C)O [propan-2-ol] + CCCCn1cc[n+](C)c1.COS(=O)(=O)[O-]
Result: 0.88

Query: Dear colleague, please send me the reported activity coefficient for CCCO [propan-1-ol] + CCCCn1cc[n+](C)c1.F[P-](F)(F)(F)(F)F when you can.
Result: 2.45

* * *

experiment: activity coefficient (dimensionless); of the first substance listed, at infinite dilution; xn = mol fraction of the nth substance listed; conditions: 333.15 K; 101 kPa; Liquid; Chromatography; x1 = 0
Classes based on activity coefficient: small value = under 1, mid value = from 1 up to 3, large value = 3 and over

Query: State the band of CO [methanol] + CCCCn1cc[n+](C)c1.COS(=O)(=O)[O-]
Result: small value

Query: Note: place this compound into its band. Item: CCCO [propan-1-ol] + CCCCn1cc[n+](C)c1.COS(=O)(=O)[O-]
Result: small value

Query: Just checking, what class would you give CO [methanol] + CCCCn1cc[n+](C)c1.F[P-](F)(F)(F)(F)F here?
Result: mid value

Query: Band of CCCCO [butan-1-ol] + CCCCn1cc[n+](C)c1.F[P-](F)(F)(F)(F)F ?
Result: large value

Query: Record CCC(C)O (configuration not stated) [butan-2-ol] + CCCCn1cc[n+](C)c1.F[P-](F)(F)(F)(F)F — which class?
Result: large value

Query: Hello team, could you let me know which band the following compound falls into: CC(C)CO [2-methyl-1-propanol] + CCCCn1cc[n+](C)c1.F[P-](F)(F)(F)(F)F
Result: large value

Query: For this compound, which bin applies? CCCO [propan-1-ol] + CCCCCC[n+]1ccn(C)c1.O=S(=O)([N-]S(=O)(=O)C(F)(F)F)C(F)(F)F
Result: mid value

Query: State the class of the compound shown: CC(C)CO [2-methyl-1-propanol] + CCCCn1cc[n+](C)c1.COS(=O)(=O)[O-]
Result: mid value

Query: // return the class label for CCCO [propan-1-ol] + CCCCn1cc[n+](C)c1.F[P-](F)(F)(F)(F)F
Result: large value

Query: Looking at CC(C)O [propan-2-ol] + CCCCn1cc[n+](C)c1.F[P-](F)(F)(F)(F)F , which class would you pick?
Result: mid value

Query: Class (by measured activity coefficient) for CCCCO [butan-1-ol] + CCCCCC[n+]1ccn(C)c1.O=S(=O)([N-]S(=O)(=O)C(F)(F)F)C(F)(F)F
Result: mid value

Query: Categorize the following entry: CCO [ethanol] + CCCCn1cc[n+](C)c1.COS(=O)(=O)[O-]
Result: small value

Query: For the record CCO [ethanol] + CCCCn1cc[n+](C)c1.F[P-](F)(F)(F)(F)F , report the class its activity coefficient corresponds to.
Result: mid value

Query: Which activity coefficient category applies to CCC(C)O (configuration not stated) [butan-2-ol] + CCCCn1cc[n+](C)c1.COS(=O)(=O)[O-] here?
Result: mid value

Query: Kindly identify the class of CC(C)(C)O [2-methylpropan-2-ol] + CCCCn1cc[n+](C)c1.COS(=O)(=O)[O-] .
Result: mid value

Query: Please indicate the class for CC(C)O [propan-2-ol] + CCCCn1cc[n+](C)c1.COS(=O)(=O)[O-] based on its activity coefficient.
Result: small value
